Recorded measurements of Ki, one per entry
measurement_target: Melanin-concentrating hormone receptor 1 (Homo sapiens, UniProt Q99705)
Sequence (Q99705 whole entry): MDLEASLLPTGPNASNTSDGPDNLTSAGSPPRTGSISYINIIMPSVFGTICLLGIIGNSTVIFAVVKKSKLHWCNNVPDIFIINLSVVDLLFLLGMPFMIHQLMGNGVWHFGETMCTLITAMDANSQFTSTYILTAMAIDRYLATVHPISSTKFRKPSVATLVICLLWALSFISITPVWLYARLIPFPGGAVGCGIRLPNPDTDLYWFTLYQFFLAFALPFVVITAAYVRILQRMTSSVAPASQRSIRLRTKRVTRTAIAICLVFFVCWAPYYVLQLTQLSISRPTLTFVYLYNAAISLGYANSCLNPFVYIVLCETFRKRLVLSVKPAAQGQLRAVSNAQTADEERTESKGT
assay_notes: Binding activity against human MCH-R1
# output: number + unit

CN1CCN(CCCN(c2nc3cc(F)c(F)cc3[nH]2)[C@@H]2CC[C@]3(c4cccc(CN5CC[C@H](O)C5)c4)C[C@@H]3C2)CC1; 441 nM
CN1CCN(CCCN(c2nc3cc(Cl)c(F)cc3[nH]2)[C@@H]2CC[C@]3(c4ccc(C#N)cc4)C[C@H]23)CC1; 4.9 nM
CN1CCN(CCCN(c2nc3cc(Cl)c(Cl)cc3[nH]2)[C@@H]2CC[C@]3(c4ccc(C#N)cc4)C[C@H]23)CC1; 11.4 nM
CN1CCN(CCCN(c2nc3cc(Cl)c(Cl)cc3[nH]2)[C@@H]2CC[C@]3(c4cccc(C#N)c4)C[C@H]23)CC1; 6.8 nM
CS(=O)(=O)N1CCC(CN(c2nc3cc(Cl)c(Cl)cc3[nH]2)[C@@H]2CCC3(c4cccc(C#N)c4)C[C@@H]3C2)CC1 (single isomer, unassigned); 1.5 nM

We now examine a further molecule.
What the record says about CN1CCN(CCCN(c2nc3cc(F)c(F)cc3[nH]2)[C@@H]2CCC3(c4cccc(CN5CCOCC5)c4)C[C@@H]3C2)CC1 (single isomer, unassigned) : Ki is 21.3 nM
